- Study target: KRAS G12C (Homo sapiens (Human), UniProt P01116+P62937, G12C)
- Sequence (P01116-2 other isoform, or with tags, fused parts or gaps G12C): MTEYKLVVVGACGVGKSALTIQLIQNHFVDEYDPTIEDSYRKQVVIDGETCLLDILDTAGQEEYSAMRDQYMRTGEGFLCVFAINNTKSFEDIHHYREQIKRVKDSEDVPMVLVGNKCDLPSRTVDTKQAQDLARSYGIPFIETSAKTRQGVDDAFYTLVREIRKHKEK
- Sequence (P62937 whole entry): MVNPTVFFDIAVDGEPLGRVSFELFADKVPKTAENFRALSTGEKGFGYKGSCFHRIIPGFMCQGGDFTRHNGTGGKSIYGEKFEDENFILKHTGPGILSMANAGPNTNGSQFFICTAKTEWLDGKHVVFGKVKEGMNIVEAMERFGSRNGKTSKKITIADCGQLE
- Experimental details: Ras-Raf disruption/FRET/MOA assay (BRAF RBD, Cyclophilin A)
- Type: biochemical
- Condition: read-out: KRAS G12C FRET IC50
Items are presented alongside their recorded IC50.

- Molecule: "CCn1c(-c2cnccc2COC)c2c3cc(ccc31)-c1cc(O)cc(c1)C[C@H](NC(=O)[C@H](C(C)C)N(C)C(=O)[C@H]1CCN(C(=O)C(C)(C)N)C1)C(=O)N1CCC[C@H](N1)C(=O)OCC(C)(C)C2 [Compound A15]"
  IC50: "10 to 100 nM"
- Molecule: "CCn1c(-c2cccnc2[C@H](C)OC)c2c3cc(ccc31)-c1csc(n1)C[C@H](NC(=O)[C@H](C(C)C)N(C)C(=O)N1CCN(C(=O)[C@@H]3CCCN3C)CC1)C(=O)N1CCC[C@H](N1)C(=O)OCC(C)(C)C2 [Compound A596]"
  IC50: "10 to 100 nM"
- Molecule: "CCn1c(-c2cccnc2[C@H](C)OC)c2c3cc(ccc31)-c1cc(O)cc(c1)C[C@H](NC(=O)[C@H]1C[C@@H]1C)C(=O)N1CCC[C@H](N1)C(=O)OCC(C)(C)C2 [Compound A182]"
  IC50: "100 to 1000 nM"
- Molecule: "CCn1c(-c2cccnc2[C@H](C)OC)c2c3cc(ccc31)-c1csc(n1)C[C@H](NC(=O)[C@H](C(C)C)N(C)C(=O)N1CC(O)(COC)C1)C(=O)N1CCC[C@H](N1)C(=O)OCC(C)(C)C2 [Compound A553]"
  IC50: "100 to 1000 nM"
- Molecule: "CCn1c(-c2cnccc2COC)c2c3cc(ccc31)-c1cc(O)cc(c1)C[C@H](NC(=O)[C@@H](OC(=O)N1CCCC1)C(C)C)C(=O)N1CCC[C@H](N1)C(=O)OCC(C)(C)C2 [Compound A59]"
  IC50: "1000 to 10000 nM"
- Molecule: "CCn1c(-c2cccnc2[C@H](C)OC)c2c3cc(ccc31)-c1cc(O)cc(c1)C[C@H](NC(=O)[C@H](C(C)C)N(C)C(=O)C1CN3CCCN1CC3)C(=O)N1CCC[C@H](N1)C(=O)OCC(C)(C)C2 (some centres unmarked) [Compound A404]"
  IC50: "100 to 1000 nM"
- Molecule: "CCn1c(-c2cc(N3CCN(C)CC3)cnc2[C@H](C)OC)c2c3cc(ccc31)-c1csc(n1)C[C@H](NC(=O)[C@H](C(C)C)N(C)C(=O)N1CC(OC)C1)C(=O)N1CCC[C@H](N1)C(=O)OCC(C)(C)C2 [Compound A466]"
  IC50: "10 to 100 nM"
- Molecule: "CCn1c(-c2cccnc2[C@H](C)OC)c2c3cc(ccc31)-c1csc(n1)C[C@H](NC(=O)[C@H](C(C)C)N(C)C(=O)N1CC(S(=O)(=O)N(C)C)C1)C(=O)N1CCC[C@H](N1)C(=O)OCC(C)(C)C2 [Compound A551]"
  IC50: "10 to 100 nM"
- Molecule: "CCn1c(-c2cccnc2[C@H](C)OC)c2c3cc(ccc31)-c1cc(O)cc(c1)C[C@H](NC(=O)[C@H](C(C)C)N(C)C(=O)C1(CN)CC1)C(=O)N1CCC[C@H](N1)C(=O)OCC(C)(C)C2 [Compound A139]"
  IC50: "10 to 100 nM"
- Molecule: "CCn1c(-c2cccnc2[C@H](C)OC)c2c3cc(ccc31)-c1csc(n1)C[C@H](NC(=O)[C@H](C(C)C)N(C)C(=O)N1CC(O)C1)C(=O)N1CCC[C@H](N1)C(=O)OCC(C)(C)C2 [Compound A358]"
  IC50: "10 to 100 nM"
- Molecule: "CCn1c(-c2cccnc2[C@H](C)OC)c2c3cc(ccc31)-c1csc(n1)C[C@H](NC(=O)[C@H](C(C)C)N(C)C(=O)N(C)C[C@H]1CCCN1C)C(=O)N1CCC[C@H](N1)C(=O)OCC(C)(C)C2 [Compound A473]"
  IC50: "100 to 1000 nM"
- Molecule: "CCn1c(-c2cccnc2[C@H](C)OC)c2c3cc(ccc31)-c1cc(O)cc(c1)C[C@H](NC(=O)[C@H](C(C)C)N(C)C(=O)O[C@H]1CCN(C)C1)C(=O)N1CCC[C@H](N1)C(=O)OCC(C)(C)C2 [Compound A169]"
  IC50: "100 to 1000 nM"
- Molecule: "CCn1c(-c2cccnc2[C@H](C)OC)c2c3cc(ccc31)-c1csc(n1)C[C@H](NC(=O)[C@H](C(C)C)N(C)C(=O)N1CC[C@@]3(CCNC3=O)C1)C(=O)N1CCC[C@H](N1)C(=O)OCC(C)(C)C2 [Compound A480]"
  IC50: "100 to 1000 nM"
- Molecule: "CCn1c(-c2cccnc2[C@H](C)OC)c2c3cc(ccc31)-c1csc(n1)C[C@H](NC(=O)[C@H](C(C)C)N(C)C(=O)N1CCC13CCS(=O)(=O)CC3)C(=O)N1CCC[C@H](N1)C(=O)OCC(C)(C)C2 [Compound A530]"
  IC50: "100 to 1000 nM"
- Molecule: "CCn1c(-c2cccnc2[C@H](C)OC)c2c3cc(ccc31)-c1csc(n1)C[C@H](NC(=O)[C@H](C(C)C)N(C)C(=O)N1CCN(C(C)=O)CC1)C(=O)N1CCC[C@H](N1)C(=O)OCC(C)(C)C2 [Compound A291]"
  IC50: "10 to 100 nM"
- Molecule: "CCn1c(-c2cnccc2COC)c2c3cc(ccc31)-c1cc(O)cc(c1)C[C@H](NC(=O)[C@H](C(C)C)N(C)C(=O)[C@H]1CCN(C[C@@H](C)O)C1)C(=O)N1CCC[C@H](N1)C(=O)OCC(C)(C)C2 [Compound A31]"
  IC50: "100 to 1000 nM"
- Molecule: "CCn1c(-c2cccnc2[C@H](C)OC)c2c3cc(ccc31)-c1cc(O)cc(c1)C[C@H](NC(=O)[C@H](C(C)C)N(C)C(=O)[C@H]1CCN(C3CC3)C1)C(=O)N1CCC[C@H](N1)C(=O)OCC(C)(C)C2 [Compound A175]"
  IC50: "1000 to 10000 nM"
